This collection of values is drawn from ChEMBL document CHEMBL3867438.

# Assay Name: Cytotoxicity against human MKN28 cells assessed as inhibition of cell proliferation after 48 hrs by MTT assay
# Assay type: functional, cell-based
# Reported Conditions: MKN-28, 48 h
Reported Metric: IC50 (µM)
Quick reminder: number only, in µM, skip the unit.

Answered cases to consult:
[
  {
    "Mol": "CC(C)(O)[C@H]1OC[C@H]([C@H]2CC[C@]3(C)C4=CC[C@H]5C(C)(C)C(=O)CC[C@]5(C)[C@H]4CC[C@@]23C)C[C@H]1O",
    "IC50 (µM)": 6.7
  },
  {
    "Mol": "C[C@@H](C[C@@H](O)[C@@H](O)C(C)(C)O)[C@@H]1CC[C@]2(C)C3=CC[C@H]4C(C)(C)C(=O)CC[C@]4(C)[C@H]3CC[C@@]12C",
    "IC50 (µM)": 6.9
  },
  {
    "Mol": "C[C@@H](CC[C@H](O)C(C)(C)O)[C@@H]1CC[C@]2(C)C3=CC[C@H]4C(C)(C)C(=O)CC[C@]4(C)[C@H]3CC[C@@]12C",
    "IC50 (µM)": 9.1
  }
]

Next compound, please.
Recorded IC50 of `CCO[C@@H]1O[C@@H](C=C(C)C)C[C@H]1[C@@H]1CC=C2[C@]3(C)[C@H](O)C[C@H]4C(C)(C)[C@H](O)CC[C@]4(C)[C@H]3CC[C@]21C` , please.
2.5
